src = patent US11026946B2

Molecular target: GABAB receptor (Rattus norvegicus, UniProt O88871+Q9Z0U4)
Sequence (O88871 41-940): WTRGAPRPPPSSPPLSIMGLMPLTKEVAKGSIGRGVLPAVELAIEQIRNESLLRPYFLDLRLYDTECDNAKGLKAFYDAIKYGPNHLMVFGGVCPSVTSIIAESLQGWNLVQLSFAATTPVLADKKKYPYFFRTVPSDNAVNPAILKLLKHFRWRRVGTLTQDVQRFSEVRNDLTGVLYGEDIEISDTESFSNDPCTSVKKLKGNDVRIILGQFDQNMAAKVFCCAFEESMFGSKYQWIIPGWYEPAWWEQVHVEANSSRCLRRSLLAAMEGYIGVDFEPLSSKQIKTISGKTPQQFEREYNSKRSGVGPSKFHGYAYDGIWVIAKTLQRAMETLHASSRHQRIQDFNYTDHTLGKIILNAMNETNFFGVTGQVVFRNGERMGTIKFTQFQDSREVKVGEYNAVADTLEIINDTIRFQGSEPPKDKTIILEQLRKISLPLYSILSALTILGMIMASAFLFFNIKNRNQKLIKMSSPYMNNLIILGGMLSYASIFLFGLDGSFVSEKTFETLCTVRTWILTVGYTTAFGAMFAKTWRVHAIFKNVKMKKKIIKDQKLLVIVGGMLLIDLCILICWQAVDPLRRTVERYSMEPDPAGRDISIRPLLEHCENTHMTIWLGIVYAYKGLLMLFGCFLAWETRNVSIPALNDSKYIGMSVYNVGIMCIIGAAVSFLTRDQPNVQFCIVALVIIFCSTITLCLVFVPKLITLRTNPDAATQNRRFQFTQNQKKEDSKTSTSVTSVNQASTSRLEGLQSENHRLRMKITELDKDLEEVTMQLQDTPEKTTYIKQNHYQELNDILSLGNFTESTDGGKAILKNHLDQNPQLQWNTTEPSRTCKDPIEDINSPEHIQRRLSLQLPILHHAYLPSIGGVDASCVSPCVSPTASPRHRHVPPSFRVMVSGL
Sequence (Q9Z0U4 17-960 limits assumed): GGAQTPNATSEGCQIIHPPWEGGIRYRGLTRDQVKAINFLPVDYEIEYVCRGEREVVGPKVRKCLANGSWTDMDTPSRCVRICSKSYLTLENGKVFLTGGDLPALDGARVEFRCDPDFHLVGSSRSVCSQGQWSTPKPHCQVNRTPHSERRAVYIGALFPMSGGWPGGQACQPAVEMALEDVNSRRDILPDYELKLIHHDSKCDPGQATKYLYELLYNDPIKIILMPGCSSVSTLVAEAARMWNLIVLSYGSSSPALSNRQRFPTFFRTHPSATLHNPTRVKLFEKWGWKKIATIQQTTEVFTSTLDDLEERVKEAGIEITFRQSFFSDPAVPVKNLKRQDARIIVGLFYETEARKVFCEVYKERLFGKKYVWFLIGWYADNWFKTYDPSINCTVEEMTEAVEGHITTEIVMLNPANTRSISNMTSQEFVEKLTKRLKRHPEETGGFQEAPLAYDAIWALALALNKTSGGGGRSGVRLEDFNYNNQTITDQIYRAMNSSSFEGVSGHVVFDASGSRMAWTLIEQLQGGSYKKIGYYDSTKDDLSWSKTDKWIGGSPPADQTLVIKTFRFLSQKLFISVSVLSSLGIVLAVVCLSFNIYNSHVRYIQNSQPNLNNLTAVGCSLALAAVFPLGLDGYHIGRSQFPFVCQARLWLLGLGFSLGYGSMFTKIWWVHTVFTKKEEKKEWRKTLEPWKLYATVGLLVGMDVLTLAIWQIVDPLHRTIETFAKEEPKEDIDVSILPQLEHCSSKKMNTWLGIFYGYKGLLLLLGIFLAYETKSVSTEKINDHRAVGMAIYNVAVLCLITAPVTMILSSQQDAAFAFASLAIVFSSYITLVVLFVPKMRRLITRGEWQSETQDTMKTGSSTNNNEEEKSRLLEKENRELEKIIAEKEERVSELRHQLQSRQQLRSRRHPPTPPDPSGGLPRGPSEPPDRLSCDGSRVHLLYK
Test: In vitro [35S]GTPγS binding assay in rat cortical membranes
Conditions: PAM EC50, [35S]GTPγS binding, read-out: In vitro PAM potency
pEC50: −log10 of the molar value.
assay endpoint: pEC50

// below: answered molecules
INSERT INTO results (molecule, assay_endpoint, observed_result) VALUES
  ('C[C@@]1(C(=O)O)CCCN(c2c3c(nc4cc([C@H]5CC[C@H](C(F)(F)F)CC5)nn24)COCC3)C1', 'pEC50', '6.00 to 7.00'),
  ('Cc1nc2c(F)c([C@H]3CC[C@H](C(F)(F)F)CC3)nn2c(N2CCC[C@](C)(C(=O)O)C2)c1C(C)C (single isomer, unassigned)', 'pEC50', '8.00 to 9.00'),
  ('CC[C@@]1(C(=O)O)CCCN(c2c(C(C)C)c(C)nc3c(F)c([C@H]4CC[C@H](C(F)(F)F)CC4)nn23)C1 (single isomer, unassigned)', 'pEC50', '> 9.00'),
  ('Cc1nc2cc([C@H]3CC[C@H](C(F)(F)F)CC3)nn2c(N2CCC[C@@](C)(C(=O)O)C2)c1C(C)C', 'pEC50', '> 9.00'),
  ('Cc1nc2cc([C@H]3CC[C@H](C(F)(F)F)CC3)nn2c(N2CCC[C@@H](C(=O)O)C2)c1C(C)C', 'pEC50', '8.00 to 9.00');

Prompt: Need pEC50, item CC[C@@]1(C(=O)O)CCCN(c2c(OC)c(C)nc3c(F)c([C@H]4CC[C@H](C(F)(F)F)CC4)nn23)C1 (single isomer, unassigned)
Response: 7.00 to 8.00

Prompt: Do the same for Cc1nc2cc(C3CCC(F)(F)CC3)nn2c(N2CCC[C@@](C)(C(=O)O)C2)c1C(C)C (single isomer, unassigned) please
Response: 8.00 to 9.00

Prompt: Let us now turn to CCCC1(C(=O)O)CCCN(c2c(C(C)C)c(C)nc3cc([C@H]4CC[C@H](C(F)(F)F)CC4)nn23)C1 (single isomer, unassigned) [Example 5]
Response: 8.00 to 9.00

----------
Target: GABAB receptor (Rattus norvegicus, UniProt O88871+Q9Z0U4)
Experiment: In vitro [35S]GTPγS binding assay in rat cortical membranes
Settings: PAM EC50, [35S]GTPγS binding, read-out: In vitro PAM potency
assay endpoint: EC50

Consider the worked cases shown below.
INSERT INTO assay_data (compound, observed_result) VALUES
  ('COc1c(C)nc2cc([C@H]3CC[C@H](C(F)(F)F)CC3)nn2c1N1CCC[C@@](C)(C(=O)O)C1 (single isomer, unassigned)', '100 to 1000 nM'),
  ('CC[C@@]1(C(=O)O)CCCN(c2c(C(C)C)c(C)nc3cc([C@H]4CC[C@H](C(F)(F)F)CC4)nn23)C1 (single isomer, unassigned)', '< 1 nM');

Prompt: Quick one: EC50 for `Cc1nc2cc(C3CCC(F)(F)CC3)nn2c(N2CCC[C@](C)(C(=O)O)C2)c1C(C)C` ?
Response: 10 to 100 nM

Prompt: Repeat with Cc1nc2cc([C@H]3CC[C@H](C(F)(F)F)CC3)nn2c(N2CCCC(CF)(C(=O)O)C2)c1C(C)C (single isomer, unassigned) [Example 7]
Response: < 1 nM

Prompt: Would you kindly repeat that for `Cc1nc2cc([C@H]3CC[C@H](C(F)(F)F)CC3)nn2c(N2CCC[C@](C(=O)O)(C(C)C)C2)c1C(C)C` ?
Response: 1 to 10 nM

Prompt: Again, but for `CC[C@]1(C(=O)O)CCCN(c2c(OC)c(C)nc3cc([C@H]4CC[C@H](C(F)(F)F)CC4)nn23)C1`
Response: 10 to 100 nM

Prompt: Now the same for COc1c(C)nc2cc([C@H]3CC[C@H](C(F)(F)F)CC3)nn2c1N1CCC[C@](C)(C(=O)O)C1 (single isomer, unassigned)
Response: 10 to 100 nM
